- STUDY TARGET: IMPDH (human type II) (Homo sapiens, UniProt P12268)
pIC50: −log10 of the molar value.
PROPERTY NAME: pIC50

1) COc1cc(NC(=O)C(=O)NC(C)(C)C)ccc1-c1cnco1    7.43
2) COc1cc(NC(=O)C(=O)Nc2cccc(CC(=O)Nc3ccccc3)c2)ccc1-c1cnco1    7.46
3) COc1cc(NC(=O)C(=O)Nc2cccc(CNC(=O)OC(C)C)c2)ccc1-c1cnco1    7.48
4) COc1cc(NC(=O)C(=O)Nc2cccc(CN)c2)ccc1-c1cnco1    6.63
5) COc1cc(NC(=O)C(=O)NC(C)(C)Cc2ccc([N+](=O)[O-])cc2)ccc1-c1cnco1    8.00
6) COc1cc(NC(=O)C(=O)Nc2cccc(CNS(=O)(=O)c3ccccc3)c2)ccc1-c1cnco1    6.90
7) COc1cc(NC(=O)C(=O)Nc2cccc(CNC(=O)Oc3ccccc3)c2)ccc1-c1cnco1    7.96

From: patent US6867299B2
